System: MiaPaca-2 cells
test: MiaPaca-2 Cell Proliferation Assay
Assay type: cell-based
settings: Homo sapiens, MIA PaCa-2, MiaPaca-2 cells; Table 2; read-out: Inhibition of cell proliferation in MiaPaca-2 (IC50 class)
pIC50: −log10 of the molar value.
property: pIC50

The compound identified as O=C(Nc1cc(-c2ccnc(-c3ccnc(NC(=O)C4CC4)c3)c2)c(F)cc1F)c1cc(C(F)(F)F)cnn1 [Example 46] registered its pIC50 at 5.00 to 6.00

The compound identified as Cc1ccc(NC(=O)c2cncc(C(C)(C)C#N)c2)cc1-c1cncc(-c2ccnc(NC(=O)C3CC3)c2)n1 [Example 108] registered its pIC50 at 6.30 to 7.00

The compound identified as CNCC(=O)Nc1cc(-c2cc(-c3cc(NC(=O)c4cc(C5CC5)cnn4)ccc3C)ccn2)ccn1 [Example 107] registered its pIC50 at 6.30 to 7.00

The compound identified as Cc1ccc(NC(=O)c2cc(C(F)(F)F)cnn2)cc1-c1ccnc(-c2ccnc(NC(=O)C3CC3)c2)c1 [Example 67] registered its pIC50 at > 7.00

---

System: MiaPaca-2 cells
test: MiaPaca-2 Cell Proliferation Assay
Assay type: cell-based
settings: Homo sapiens, MIA PaCa-2, MiaPaca-2 cells; Table 2; read-out: Inhibition of cell proliferation in MiaPaca-2 (IC50 class)
pIC50: −log10 of the molar value.
For each of the compounds below, state its pIC50.

The compound identified as Cc1ccc(NC(=O)c2cc(Cl)cnn2)cc1-c1ccnc(-c2ccnc(NC(=O)C3CC3)c2)c1 [Example 40] registered its pIC50 at 6.00 to 6.30

The compound identified as Cc1ccc(NC(=O)c2cc(C(F)(F)F)cnn2)cc1-c1cc(OCCO)nc(-c2ccnc(NC(=O)C3CC3)c2)c1 [Example 131] registered its pIC50 at 6.30 to 7.00

The compound identified as Cc1ccc(NC(=O)c2cc(OC(F)F)cnn2)cc1-c1ccnc(-c2ccnc(NC(=O)C3CC3)c2)c1 [Example 134] registered its pIC50 at 6.00 to 6.30

The compound identified as Cc1ccc(NC(=O)c2cc(C(F)(F)F)cnn2)cc1-c1cc(N[C@H](C)CO)cc(-c2cc(NC(=O)C3CC3)ncn2)c1 [Example 123] registered its pIC50 at 6.30 to 7.00

The compound identified as Cc1ccc(NC(=O)c2cc(C(F)(F)F)cnn2)cc1-c1ccnc(-c2ccnc(NC(C)C)c2)c1 [Example 54] registered its pIC50 at 6.30 to 7.00

The compound identified as Cc1ccc(NC(=O)c2cc(C(F)(F)F)cnn2)cc1-c1ccnc(-c2ccnc(NC(=O)CN(C)C)c2)c1 [Example 52] registered its pIC50 at 6.30 to 7.00

The compound identified as Cc1ccc(NC(=O)c2cc3c(nn2)CCC3)cc1-c1ccnc(-c2ccnc(NC(=O)C3CC3)c2)c1 [Example 98] registered its pIC50 at 5.00 to 6.00

---

For each of the compounds below, state its pIC50.
Tested on: HPAF-II cells
test: HPAF-II Cell Proliferation Assay
Format: cell-based
settings: Homo sapiens, HPAF-II, Table 4; HPAF-II mutant KRAS pancreatic cancer cell line; read-out: HPAF-II IC50
Procedure: HPAF-II cells (catalog #CRL-1997) are obtained from the American Type Culture Collect (ATCC, Manassas, VA). […] Plates are read on a Synergy2 or equivalent reader (Biotek, Winooski, VT) using an excitation of 540 nm and an emission of 600 nm. Data is analyzed using Prism software (Graphpad, San Diego, CA) to calculate IC50 values.
pIC50: −log10 of the molar value.

The compound identified as Cc1ccc(NC(=O)c2ccnc(C(C)(C)F)c2)cc1-c1ccnc(-c2ccnc(NC(=O)C3CC3)c2)c1 [reference compound] registered its pIC50 at 6.00 to 6.30

The compound identified as Cc1ccc(NC(=O)c2ccnc(C3CC3)c2)cc1-c1ccnc(-c2ccnc(NC(=O)C3CC3)c2)c1 [reference compound] registered its pIC50 at 5.00 to 6.00

The compound identified as Cc1ccc(NC(=O)c2ccnc(C(C)C)c2)cc1-c1ccnc(-c2ccnc(NC(=O)C3CC3)c2)c1 [reference compound] registered its pIC50 at 6.30 to 7.00
